system: SRPK3; conditions: concentration: 1 μM, replicates: in singlicate; n = 1;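 further: KINOMEscan kinase panel screen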
Readout name: %Inh (%)
Reply with just the number (in %).

Request: Given the compound COc1cc(Nc2nccc(N3CCC(NC(=O)Nc4ccc5c(c4)OCO5)C3)n2)cc(OC)c1OC (stereo not shown) , what is its reported %Inh?
Response: 0

Request: What do we get for Cc1ccc(O)cc1Nc1ccnc2ccc(C(C)(C)C)cc12 ?
Response: 9

Request: What do we get for N#CC1(c2cccc(C(=O)Nc3cccc(Oc4ccc5nc(NC(=O)C6CC6)sc5n4)c3)c2)CC1 ?
Response: 0

Next:
Request: Given the compound COc1ccc(NC(=O)c2ccoc2)cc1-c1ccc(C(=O)NCC2CC2)cc1 , what is its reported %Inh?
Response: 12

----------
tested on: CAMK2B; conditions: concentration: 1 μM, replicates: in singlicate; n = 1
Parameter: %Inh. Scope: all listed entries.
Reply with just the number (in %).

Request: Given the compound c1ccc(Oc2ccc(Nc3ccnc4cc(-c5ccc(CN6CCCCC6)o5)ccc34)cc2)nc1 , what is its reported %Inh?
Response: 0

Request: What do we get for Fc1cc(Cl)ccc1Nc1ccnc2cc(-c3ccc(CN4CCSCC4)o3)ccc12 ?
Response: 0

Request: What do we get for O=C(O)C(F)(F)F.O=c1[nH]ccc2nc(N[C@@H]3CCNC3)nc(Nc3cc(Cl)cc(Cl)c3)c12 ?
Response: 37

Request: What do we get for CCn1c(-c2nonc2N)nc2c(-c3ccccc3)ncc(OCCCN)c21.O=C(O)C(F)(F)F.O=C(O)C(F)(F)F ?
Response: 0

Request: What do we get for CCNC(=O)/C=C/c1n[nH]c2cc(Sc3ccccc3C(=O)NC)ccc12 ?
Response: 0

Request: What do we get for CN(c1ccc(F)c(NC(=O)c2cccc(OC(C)(C)C#N)c2Cl)c1)c1ccc2nc(NC(=O)C3CC3)sc2n1 ?
Response: 0

Request: What do we get for COc1ccc(NC(=O)c2ccoc2)cc1-c1ccc(C(=O)NCC2CC2)cc1 ?
Response: 0

Request: What do we get for O=C(Nc1n[nH]c2cc(-c3cccs3)ccc12)C1CC1 ?
Response: 0

Request: What do we get for Cc1ccc(NC(=O)c2ccc(Cl)c(Cl)c2)cc1-c1ccc(C(=O)Nc2ccncc2)cc1 ?
Response: 0

----------
system: ABL1-nonphosphorylated; conditions: concentration: 1 μM, replicates: in singlicate; n = 1
Readout name: %Inh
Your answer should be a number followed by the unit of measure.

Observe how each entry below is paired with its result.
Request: Given the molecule CCNc1nccc(-c2c(-c3ccc(F)cc3)ncn2C2CCN(C)CC2)n1 , what is its reported %Inh?
Response: 30%

Request: What do we get for CC(C)c1nc(-c2ccc(F)c(NS(=O)(=O)c3c(F)cccc3F)c2)c(-c2ccnc(Nc3ccc(N4CCOCC4)nc3)n2)s1 ?
Response: 99.8%

Request: What do we get for CCn1c(-c2nonc2N)nc2c(-c3ccccc3)ncc(OCCCN)c21.O=C(O)C(F)(F)F.O=C(O)C(F)(F)F ?
Response: 0%

Request: What do we get for CN(c1ccc2c(c1)nc(NCc1ccccc1)n2C)c1ccnc(Nc2ccc(CS(C)(=O)=O)cc2)n1.Cl ?
Response: 98.9%

Request: What do we get for Fc1cc(Cl)ccc1Nc1ccnc2cc(-c3ccc(CN4CCSCC4)o3)ccc12 ?
Response: 95.9%

Next:
Request: Given the molecule COc1cccc(C2=C(Nc3cccc(O)c3)C(=O)NC2=O)c1 , what is its reported %Inh?
Response: 0%

Request: What do we get for N#Cc1cnc2cc(-c3cnc(CNCCN4CCOCC4)s3)ccc2c1Nc1ccc(Oc2ccccc2)cc1 ?
Response: 97.4%

Request: What do we get for Cn1cc(-c2cnc(N)c3c(-c4ccc5c(c4)CCN5C(=O)Cc4ccccc4)csc23)cn1 ?
Response: 99.7%

----------
test system: GRK4; settings: concentration: 1 μM, replicates: in singlicate; n = 1
Readout name: %Inh (%)
Reply with just the number (in %).

Observe how each entry below is paired with its result.
Request: Given the molecule CN(c1ccc(NC(=O)Nc2cccc(Cl)c2)cc1)c1ccnc(N)n1.Cl [GW830707] , what is its reported %Inh?
Response: 0

Request: What do we get for Fc1cc(Cl)ccc1Nc1ccnc2cc(-c3ccc(CN4CCOCC4)o3)ccc12 [GW560109] ?
Response: 2

Request: What do we get for COc1cccc(CC(=O)N2CCc3cc(-c4cn(C)c5ncnc(N)c45)ccc32)c1 [GSK2608899] ?
Response: 9

Next:
Request: Given the molecule c1ccc(Oc2ccc(Nc3ccnc4cc(-c5ccc(CN6CCCCC6)o5)ccc34)cc2)nc1 [GW567143] , what is its reported %Inh?
Response: 0

Request: What do we get for CN(c1ccc(NC(=O)N2CCN(CCCN3CCOCC3)CC2)cc1)c1ccnc(Nc2ccc(CS(C)(=O)=O)cc2)n1.Cl [GW830899] ?
Response: 43

Request: What do we get for N#Cc1cnc2cc(-c3cnc(CNCCN4CCOCC4)s3)ccc2c1Nc1ccc(Oc2ccccc2)cc1 [GW664114] ?
Response: 0

Request: What do we get for COc1cc(Nc2nccc(N3CCC(NS(=O)(=O)c4ccc(NC(C)=O)cc4)CC3)n2)cc(OC)c1OC [GSK1379825] ?
Response: 0

Request: What do we get for Cc1cccc(Nc2nc(NCCN)ncc2C(N)=O)c1 [GSK1292139] ?
Response: 15

Request: What do we get for COc1cccc2c(-c3ccncc3)c(-c3ccc(F)cc3)nn12 [GW468513] ?
Response: 0

----------
Parameter: %Inh. Scope: all listed entries.
test system: GRK1; settings: concentration: 1 μM, replicates: in singlicate; n = 1
Reply with just the number (in %).

Request: Given the compound COc1ccc(NC(=O)c2ccoc2)cc1-c1ccc(C(=O)NCC2CC2)cc1 , what is its reported %Inh?
Response: 24

Request: What do we get for Cc1ccc(NC(=O)c2ccc(Cl)c(Cl)c2)cc1-c1ccc(C(=O)Nc2ccncc2)cc1 ?
Response: 0

Next:
Request: Given the compound Cn1cc(-c2cnc(N)c3c(-c4ccc5c(c4)CCN5C(=O)Cc4ccccc4)csc23)cn1 , what is its reported %Inh?
Response: 0

Request: What do we get for Cl.O=C(Nc1ccc(Oc2ccc3[nH]c(NC(=O)c4ccco4)nc3c2)cc1)Nc1cc(C(F)(F)F)ccc1F ?
Response: 0

Request: What do we get for CCOc1nccc(-c2c(-c3ccc(F)cc3)ncn2C2CCNCC2)n1 ?
Response: 11

Request: What do we get for Cn1cc(-c2ccc3c(c2)CCN3C(=O)Cc2cc(F)cc(F)c2F)c2c(N)ncnc21 ?
Response: 11

Request: What do we get for COc1cccc(CC(=O)N2CCc3cc(-c4cn(C)c5ncnc(N)c45)ccc32)c1 ?
Response: 0

Request: What do we get for CC(=O)Nc1cn2nc(Oc3cccc(NC(=O)c4cccc(C(F)(F)F)c4)c3)ccc2n1 ?
Response: 0

Request: What do we get for CCn1c(-c2nonc2N)nc2c(-c3ccccc3)ncc(OCCCN)c21.O=C(O)C(F)(F)F.O=C(O)C(F)(F)F ?
Response: 0

Request: What do we get for Cc1cccc(Nc2nc(N[C@H]3CCCC[C@H]3N)ncc2C(N)=O)c1.Cl ?
Response: 0

Request: What do we get for Cl.Cl.NC(CNC(=O)c1cc(Br)c(-c2ccnc3[nH]ccc23)s1)c1ccccc1 (centres unmarked) ?
Response: 3

----------
system: PIP5K1A; conditions: concentration: 1 μM, replicates: in singlicate; n = 1
Parameter: %Inh. Scope: all listed entries.
Reply with just the number (in %).

Observe how each entry below is paired with its result.
Request: Given the compound Cc1ccc(NC(=O)c2ccnc(N3CCCCC3)c2)cc1-c1ccc(C(=O)NCC2CC2)cc1 , what is its reported %Inh?
Response: 0

Request: What do we get for Cc1ccc(NC(=O)c2cccc(N3CCCCC3)c2)cc1-c1ccc(C(=O)NCC2CC2)cc1 ?
Response: 0

Request: What do we get for NCCC(NC(=O)c1cc(Br)c(-c2ccnc3[nH]ccc23)s1)c1ccccc1.O=C(O)C(F)(F)F.O=C(O)C(F)(F)F (stereo not drawn) ?
Response: 82

Request: What do we get for CN(c1ccc(F)c(NC(=O)c2cccc(OC(C)(C)C#N)c2Cl)c1)c1ccc2nc(NC(=O)C3CC3)sc2n1 ?
Response: 34

Request: What do we get for Cc1ccc(-c2ccc3occ(-c4ccc(S(C)=O)cc4)c3c2)nn1 (stereo not drawn) ?
Response: 0

Request: What do we get for Cc1cccc(Nc2nc(NCCN)ncc2C(N)=O)c1 ?
Response: 50

Request: What do we get for COC(=O)Nc1nc2cc(Oc3ccc(NC(=O)Nc4cccc(SC)c4)cc3)ccc2[nH]1.Cl ?
Response: 56

Request: What do we get for O=C(Nc1n[nH]c2cc(-c3cccs3)ccc12)C1CC1 ?
Response: 21

Kindly consider the entry below.
Request: Given the compound Cc1ccc(C)c(NC(=O)Nc2ccc(C)c(-c3ccc(C(=O)Nc4ccncc4)cc3)c2)c1 , what is its reported %Inh?
Response: 0
